System: MDA-MB-468 breast
Assay protocol: NCI tumour cell line growth inhibition, 48 h; in the data active means GI50 below about 0.43 µM; inactive means the rest
Labels: active, inactive

Molecule	Class
Cc1[nH]c2ccccc2c1CCNCc1ccc(/C=C/C(=O)NO)cc1	active
CCN1C(=O)N(CC)C2C1NN=c1s/c(=C\c3cc4ccccc4[nH]3)c(=O)n12 (stereo not given)	active
CN(C)CC1CCCCCC(CN(C)C)C1=O (stereo not given)	inactive
CCCCN(CCCC)c1ccc(C(=NC(C)CCCN(CC)CC)c2ccc(N(C)C)cc2)cc1 (stereo not given)	inactive
O=C(N/N=C/c1cc([N+](=O)[O-])ccc1O)c1cccc2ccccc12	inactive
COc1cc(C2CC(c3ccc(N(C)C)cc3)=NN2C(C)=O)cc(OC)c1OC (stereo not given)	inactive
O=C(COc1cccc(/C=C2\COc3ccc(Cl)cc3C2=O)c1)c1ccc(Cl)cc1	inactive
CN(C)c1ccc(C(=C2C=CC(=[N+](C)C)C=C2)c2ccc(N(C)C)cc2)cc1	active
Cc1cccc(/C=C/c2ccc(NC(=S)NCCCCN(C)C)cc2)c1	inactive
Nc1n[nH]c2ccc([C@@H]3Nc4ccc5[nH]ncc5c4[C@H]4C5C=CC(C5)[C@@H]34)cc12 (stereo not given in full)	active
COc1ccc(CN2[C@H](C(=O)NCCCCCCC(=O)NO)Cc3c([nH]c4ccccc34)[C@H]2C2CC2)cc1	inactive
Nc1ccc(-c2ccc(N)cc2I)c(I)c1	inactive
Nc1n[nH]c2cccc(C#Cc3cccc(C(=O)Nc4cc(CN5CCOCC5)cc(C(F)(F)F)c4)c3)c12	inactive
Nc1c(C(=O)Nc2ccccc2)sc2nc3c(cc12)CN(Cc1ccccc1)CC3	inactive
FC(F)(F)c1ccc(-c2cnc(Cl)nc2NCc2cc(C(F)(F)F)cc(C(F)(F)F)c2)cc1	inactive

* * *

Test system: MDA-MB-468 breast
Assay protocol: NCI tumour cell line growth inhibition, 48 h
Entries and their TGI

Compound	Subject of test	TGI
OCC1OC(n2cnc3c(=S)nc[nH]c32)C(O)C1O (stereo not drawn)	MDA-MB-468 breast	> 100 µM
Nc1c(C(=O)Nc2ccccc2)sc2nc3c(cc12)CN(Cc1ccccc1)CC3	MDA-MB-468 breast	> 100 µM
COCCNc1cc(NC(=O)N2CCCc3cc(CN4CCN(C)CC4=O)c(C=O)nc32)ncc1C#N	MDA-MB-468 breast	> 50 µM
